Consider the following molecules and their measured inhibition readings.
test-system: Delta-type opioid receptor (Homo sapiens)
Sequence (P41143 whole entry): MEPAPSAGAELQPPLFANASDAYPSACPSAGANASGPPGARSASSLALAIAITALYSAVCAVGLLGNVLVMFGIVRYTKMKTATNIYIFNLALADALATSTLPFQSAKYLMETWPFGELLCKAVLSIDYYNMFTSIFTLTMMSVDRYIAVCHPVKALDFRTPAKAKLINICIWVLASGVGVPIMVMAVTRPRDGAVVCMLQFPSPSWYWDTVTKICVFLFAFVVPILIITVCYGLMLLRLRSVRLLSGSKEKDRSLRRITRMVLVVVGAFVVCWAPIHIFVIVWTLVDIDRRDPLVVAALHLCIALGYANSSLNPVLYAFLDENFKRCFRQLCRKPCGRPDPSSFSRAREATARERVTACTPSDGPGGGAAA
method-notes: Inhibition of [3H]diprenorphine binding to human cloned delta opioid receptor expressed in CHO cells at 10 uM
Type: cell-based
Write the number in % without appending the unit.

Recorded results for 3 molecules are shown here.
C[C@H]1CN2CCCC[C@@H]2C[C@@]1(C)c1cccc(O)c1 = 40
C[C@H]1[C@H]2CCCCN2CC[C@@]1(C)c1cccc(O)c1 = 47
C[C@H]1CN2CCCC[C@H]2C[C@@]1(C)c1cccc(O)c1 = 37

INPUT: Recorded inhibition for C[C@H]1CN2C[C@@H](c3ccccc3)CC[C@@H]2C[C@@]1(C)c1cccc(O)c1 , please?
OUTPUT: 49

INPUT: Recorded inhibition for C[C@H]1CN2C[C@@H](c3ccccc3)CC[C@H]2C[C@@]1(C)c1cccc(O)c1 , please?
OUTPUT: 51

###

test-system: Delta-type opioid receptor (Homo sapiens)
method-notes: Displacement of [3H]diprenorphine from human cloned delta opioid receptor expressed in CHO cells
value-type: pKi
A value of pKi is the negative decimal logarithm of a concentration given in moles per litre.

Recorded results for 4 molecules are shown here.
C[C@H]1[C@@H]2CCCCN2CC[C@@]1(C)c1cccc(O)c1 = 6.66
C[C@H]1CN2C[C@H](c3ccccc3)CC[C@H]2C[C@@]1(C)c1cccc(O)c1 = 7.51
C[C@H]1[C@H]2CC[C@H](c3ccccc3)CN2CC[C@@]1(C)c1cccc(O)c1 = 7.60
C[C@H]1[C@@H]2CC[C@H](c3ccccc3)CN2CC[C@@]1(C)c1cccc(O)c1 = 6.72

INPUT: Query for Delta-type opioid receptor (Homo sapiens): what pKi does the record show for C[C@H]1[C@@H]2CC[C@@H](c3ccccc3)CN2CC[C@@]1(C)c1cccc(O)c1 ?
OUTPUT: 8.68

INPUT: Query for Delta-type opioid receptor (Homo sapiens): what pKi does the record show for C[C@H]1[C@H]2CC[C@@H](c3ccccc3)CN2CC[C@@]1(C)c1cccc(O)c1 ?
OUTPUT: 6.55

INPUT: Query for Delta-type opioid receptor (Homo sapiens): what pKi does the record show for C[C@H]1CN2C[C@H](c3ccccc3)CC[C@@H]2C[C@@]1(C)c1cccc(O)c1 ?
OUTPUT: 6.05

###

test-system: Kappa-type opioid receptor (Homo sapiens, UniProt P41145)
Sequence (P41145 whole entry): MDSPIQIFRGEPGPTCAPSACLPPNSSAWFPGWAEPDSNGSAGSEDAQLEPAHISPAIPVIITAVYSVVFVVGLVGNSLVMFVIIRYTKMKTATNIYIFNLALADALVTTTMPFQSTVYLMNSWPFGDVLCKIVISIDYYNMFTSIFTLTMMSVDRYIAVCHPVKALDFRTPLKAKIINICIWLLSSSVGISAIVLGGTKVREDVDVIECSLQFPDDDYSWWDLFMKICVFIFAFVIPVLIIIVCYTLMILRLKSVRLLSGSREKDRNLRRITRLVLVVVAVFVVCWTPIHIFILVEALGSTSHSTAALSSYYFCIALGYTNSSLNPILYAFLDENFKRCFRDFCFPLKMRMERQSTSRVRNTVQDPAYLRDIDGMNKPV
method-notes: Displacement of [3H]diprenorphine from human cloned kappa opioid receptor expressed in CHO cells
Assay type: cell-based
Param label: returns YES when Ki < 0.4 µM, returns NO otherwise, including exact equality.

C[C@H]1CN2C[C@@H](c3ccccc3)CC[C@@H]2C[C@@]1(C)c1cccc(O)c1 = NO
C[C@H]1[C@H]2CCCCN2CC[C@@]1(C)c1cccc(O)c1 = NO
C[C@H]1[C@@H]2CCCCN2CC[C@@]1(C)c1cccc(O)c1 = YES

INPUT: In plain terms, does C[C@H]1CN2C[C@H](c3ccccc3)CC[C@@H]2C[C@@]1(C)c1cccc(O)c1 come in under 0.4 µM for Ki?
OUTPUT: NO

INPUT: In plain terms, does C[C@H]1[C@@H]2CC[C@H](c3ccccc3)CN2CC[C@@]1(C)c1cccc(O)c1 come in under 0.4 µM for Ki?
OUTPUT: YES

INPUT: In plain terms, does C[C@H]1[C@H]2CC[C@H](c3ccccc3)CN2CC[C@@]1(C)c1cccc(O)c1 come in under 0.4 µM for Ki?
OUTPUT: YES

INPUT: In plain terms, does C[C@H]1[C@@H]2CC[C@@H](c3ccccc3)CN2CC[C@@]1(C)c1cccc(O)c1 come in under 0.4 µM for Ki?
OUTPUT: YES

Source of measurements: ChEMBL document CHEMBL1137299
